Tested on: Mus musculus
Assay: Biodistribution was measured in mice liver 60 minutes after intravenous injection of [125I]-labeled styrylbenzene.
Assay type: ADME, organism-based
Conditions: in vivo, 1 h
observable: Dose/organ (%)

Example entries and their recorded answers appear below.
- smi: "CN1CCN(c2ccc(-c3nc4ccc(I)cc4s3)cc2)CC1"
  observable: "Dose/organ"
  meas-value: 17.2
- smi: "COc1ccc(/C=C/c2ccc(/C=C/c3ccc(OC)c(C(=O)O)c3)c(I)c2)cc1C(=O)O"
  observable: "Dose/organ"
  meas-value: 6.14

[1] O=C(O)c1cc(/C=C/c2ccc(/C=C/c3ccc(O)c(C(=O)O)c3)c(I)c2)ccc1O
[2] CN(C)c1ccc(-c2nc3ccc(I)cc3s2)cc1
input: Select one. Lower Dose/organ: 1 or 2 The response must carry the label of the picked entry.
output: 2

meta.source: ChEMBL document CHEMBL1134439
